Test system: UACC-257 melanoma
assay summary: NCI tumour cell line growth inhibition, 48 h; in the data active = GI50 below about 0.43 µM; inactive = the rest
Respond using exactly one of the listed classes: 1 = active, -1 = inactive

Please indicate how the test categorized CCCCNCCCCCNc1cc(OC)cc2cccnc12 . -1

Please indicate how the test categorized CCC(C(=O)[C@@H](C)[C@@H](O)[C@H](C)[C@@H]1O[C@@H]([C@@H](CC)C(=O)ONC(=O)c2ccccc2)CC[C@@H]1C)[C@H]1O[C@]2(C=CC(=O)[C@]3(CC[C@@](C)([C@H]4CC[C@](O)(CC)[C@H](C)O4)O3)O2)[C@H](C)C[C@@H]1C (stereo partly drawn) . 1

Please indicate how the test categorized O=C(COc1cccc(/C=C2\Oc3ccc4ccccc4c3C2=O)c1)c1ccc([N+](=O)[O-])cc1 . -1

Please indicate how the test categorized CCCCC[C@H]1C/C=C2/C(=O)C(Cl)=C[C@@H]2C/C=C\CCCC(=O)O1 . -1

Please indicate how the test categorized COC(=O)[C@H](CCCCNC(=O)OCc1ccccc1)NC(=O)[C@@H](NC(=O)Nc1cc(C(F)(F)F)cc(C(F)(F)F)c1)C(C)C . -1

---

Tested on: OVCAR-8 ovarian
assay summary: NCI tumour cell line growth inhibition, 48 h
Answer each item with its documented TGI.

NC(=O)c1ncn2c(=O)n(CCCl)nnc12; 426 µM
Oc1cc(O)c2c(c1)OC(c1ccc(O)c(O)c1)C(O)C2c1c(O)cc(O)c2c1OC(c1ccc(O)c(O)c1)C(O)C2 (stereo unspecified); > 100 µM
Cc1ccc(NC2=CC(=O)C(=O)c3ccccc32)cc1; 7.82 µM
CCCC(C(=O)Nc1cccc2[nH]cnc12)C(=O)OCC (stereo unspecified); > 100 µM

I would be grateful if you could provide TGI for each of the following entries.
1. COc1ccc(/C=C/c2nc(=S)[nH][nH]2)cc1OC
2. CC(=N/NC(N)=S)/C(C)=N/NC(N)=S

["> 100 µM", "> 100 µM"]

---

Test system: HOP-92 NSCLC
assay summary: NCI tumour cell line growth inhibition, 48 h
Answer each item with its documented GI50.

Field: example entries. Status: answers known.
O=C(Nc1ccc(Cl)cc1)N1CCN(c2ccc3nncn3n2)CC1; 31700 nM
COC(=O)[C@H](CCCCNC(=O)OCc1ccccc1)NC(=O)[C@@H](NC(=O)Nc1cc(C(F)(F)F)cc(C(F)(F)F)c1)C(C)C; > 10000 nM
CCC(=C(c1ccc(OCCN2CCCC2)cc1)c1ccc(OCCN2CCCC2)cc1)c1ccc(Cl)cc1; 482 nM

I would be grateful if you could provide GI50 for each of the following entries.
1. Nc1no[n+]([O-])c1-c1nnc2c(n1)-c1ccccc1C2=O
2. OCC1OC(n2cnc3c(NCc4ccccc4O)ncnc32)C(O)C1O (stereo not given)

["2210 nM", "709 nM"]

---

Answer each item with its documented TGI.
Tested on: HCT-15 colon
assay summary: NCI tumour cell line growth inhibition, 48 h

Nc1ncc2c(n1)-c1ccccc1OC2N1CCOCC1 (stereo unspecified); > 100 µM

I would be grateful if you could provide TGI for each of the following entries.
1. CCS(=O)(=O)N1CCN(c2ccc(Nc3ncc(C(N)=O)c(NC4CC4)n3)cc2)CC1
2. FC(F)(F)c1nc(Br)[nH]c1C(F)(F)F

1: 27.1 µM; 2: > 100 µM

I would be grateful if you could provide TGI for each of the following entries.
1. O=C1NC(N2CCCCC2)=N/C1=C\c1ccco1
2. O=C(CCN1CCCC1)c1ccc(Oc2ccc(F)cc2)cc1

["> 100 µM", "> 100 µM"]

I would be grateful if you could provide TGI for each of the following entries.
1. CN1CCN(Cc2ccccc2)CC1CC#N (stereo unspecified)
2. CCOC(=O)/C(=C\c1c(C)[nH]c2ccccc12)P(=O)(OCC)OCC
3. CCOc1nc2sc3c(c2c(=O)n1CCSSCCn1c(OCC)nc2sc4c(c2c1=O)CCCC4)CCCC3
4. COC(=O)C(C#N)C1NC(=O)c2ccccc21 (stereo unspecified)
5. Cn1c(N)c(/C=C/C(=O)Oc2ccccc2)c(=O)n(C)c1=O

1: > 100 µM; 2: > 100 µM; 3: > 100 µM; 4: > 100 µM; 5: > 100 µM

I would be grateful if you could provide TGI for each of the following entries.
1. O=C(COc1cccc(/C=C2\Oc3ccc4ccccc4c3C2=O)c1)c1ccc([N+](=O)[O-])cc1
2. COc1ccc(N[C@@H]2c3cc4c(cc3C(c3cc(OC)c(O)c(OC)c3)[C@H]3C(=O)OCC32)OCO4)cc1OC (stereo partly specified)
3. COc1ccc2c(c1)C(=O)c1c-2n(CCCCl)c(=O)c2cc(N)ccc12

30.9 µM
> 100 µM
> 100 µM
